Hi there, I'd appreciate the recorded pIC50 for every entry that follows.
- MEASUREMENT_TARGET: recombinant human AMCase (Homo sapiens, UniProt Q9BZP6)
- Sequence (Q9BZP6 22-476): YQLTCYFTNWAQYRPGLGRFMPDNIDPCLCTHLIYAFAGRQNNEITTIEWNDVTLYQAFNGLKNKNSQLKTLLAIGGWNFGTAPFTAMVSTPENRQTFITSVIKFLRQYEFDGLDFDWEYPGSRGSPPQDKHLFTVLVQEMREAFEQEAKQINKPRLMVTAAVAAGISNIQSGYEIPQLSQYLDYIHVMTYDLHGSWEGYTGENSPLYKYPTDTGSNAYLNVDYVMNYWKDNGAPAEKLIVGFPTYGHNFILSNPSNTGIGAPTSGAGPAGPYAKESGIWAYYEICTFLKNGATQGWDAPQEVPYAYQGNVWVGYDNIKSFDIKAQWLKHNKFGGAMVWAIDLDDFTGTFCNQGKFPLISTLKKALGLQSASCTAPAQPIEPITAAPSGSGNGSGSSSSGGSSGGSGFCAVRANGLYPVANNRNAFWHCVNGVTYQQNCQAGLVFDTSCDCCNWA
- PROTOCOL_SUMMARY: Human AMCase Activity Assay
- Type: biochemical
- MEASUREMENT_CONTEXT: recombinant hAMCase, 4-methylumbelliferyl chitobioside substrate, citrate buffer pH 5.2, 37° C., 60 minutes; read-out: Activity (IC50 value key)
pIC50: −log10 of the molar value.

> print(dat)
                                test.smiles  property  assay.result
1  Nc1n[nH]c(N2CCC(NC(=O)Nc3ccc(Cl)cc3)CC2)n1     pIC50        < 4.00

// batch mode: one pIC50 value per listed entry
1. COc1ccccc1CNC(=O)C1CCN(c2nc(N)n[nH]2)CC1
2. Nc1n[nH]c(N2CCC(CC(=O)Nc3ccc(Br)cc3)CC2)n1
3. Nc1n[nH]c(N2CCC(N(CCc3ccc(Cl)cc3)Cc3ccccc3-c3ccccc3)CC2)n1
4. Nc1n[nH]c(N2CCC(NS(=O)(=O)Cc3ccc(F)cc3)CC2)n1
5. CN(CCc1cccc(C(F)(F)F)c1)C1CCN(c2nc(N)n[nH]2)CC1
6. Nc1n[nH]c(N2CCN(CCOc3ccc(F)cc3)CC2)n1

1: < 4.00; 2: < 4.00; 3: > 7.00; 4: 4.00 to 5.00; 5: 6.00 to 7.00; 6: < 4.00

Give pIC50 for each of the items listed below.
1. Cc1ccccc1CN(CCc1ccc(Cl)cc1)C1CCN(c2nc(N)n[nH]2)CC1
2. COc1ccc(CCN(C)C2CCN(c3nc(N)n[nH]3)CC2)cc1OC

1. > 7.00
2. 4.00 to 5.00
